Numbers sourced from the supplement of paper PMC6953052.

Test system: CbCln3 +/+ GFP-LC3 cerebellar neuronal cells
assay.notes: fraction of GFP-LC3-positive cells (≥5 vesicles/cell); higher = more autophagosome accumulation
The full ranking holds about 1,700 compounds; the median of “fraction of GFP-LC3-positive cells (≥5 vesicles/cell)” is about 0.058, and the highest 2% start at about 0.59. For the sample, the highest values were picked, then their nearest neighbours and some compounds at random.
observed.property: fraction of GFP-LC3-positive cells
Answer with a bare number; do not write a unit.

[Q] Which fraction of GFP-LC3-positive cells is listed for CCOC(=O)C1=C(C)NC(=S)NC1c1cccc(O)c1 (stereo not given) ?
[A] 0.199

[Q] Which fraction of GFP-LC3-positive cells is listed for COC(=O)Nc1nc2cc(Sc3ccccc3)ccc2[nH]1 ?
[A] 0.24

[Q] Which fraction of GFP-LC3-positive cells is listed for CCCSc1ccc2[nH]c(NC(=O)OC)nc2c1 ?
[A] 0.548

[Q] Which fraction of GFP-LC3-positive cells is listed for Cc1cccc(Nc2ccncc2S(=O)(=O)NC(=O)NC(C)C)c1 [Torsemide] ?
[A] 0.0886

[Q] Which fraction of GFP-LC3-positive cells is listed for CCCCCCCC/C=C\C/C=C\C/C=C\CCCC(=O)O [Mead acid (20:3 n-9)] ?
[A] 0.0545

[Q] Which fraction of GFP-LC3-positive cells is listed for CCCCc1ccc2[nH]c(NC(=O)OC)nc2c1 ?
[A] 0.609

[Q] Which fraction of GFP-LC3-positive cells is listed for CCCCCCCC/C=C\C/C=C\C/C=C\CCCC(=O)O ?
[A] 0.0292

[Q] Which fraction of GFP-LC3-positive cells is listed for COC(=O)Nc1nc2cc(SC(C)C)ccc2[nH]1 ?
[A] 0.499

[Q] Which fraction of GFP-LC3-positive cells is listed for CCCCCCCCCCCCCCCC(=O)NCCc1ccc(O)c(O)c1 ?
[A] 0.0673

[Q] Which fraction of GFP-LC3-positive cells is listed for COC(=O)Nc1nc2cc(C(=O)c3cccs3)ccc2[nH]1 ?
[A] 0.627
